Data origin, for the record: PubChem BioAssay (Tox21)

- measurement notes: qHTS assay to identify small molecule agonists of the estrogen receptor beta (ER-beta) signaling pathway - cell viability counter screen (AID 1259380); further: nearly all actives have a fitted effect of over 30% in size; further: potency means the concentration at half of the fitted maximal effect
- assay context: ER-beta-bla HEK293T viability, CellTiter-Glo luminescence, 16 h; series mostly up to 92.4 µM
Inconclusive results are not listed. Calls of active or inactive are those of the source. The call rests on the fitted dose curve; in most records, active means well fitted cell-killing curve with a large enough effect in the repeat runs; inconclusive means weak or mixed curves, or effect the other way; inactive means flat fitted curve, though single readings scatter.
attribute measured: Potency

// below: answered compounds
CC1=C(O)C(=O)OC1C (stereo not given) = inactive
COC(=O)c1ccc(OC)cc1 = inactive
CCc1cc2cc(OC)c(OC)cc2c(Cc2ccccc2)n1 = inactive
CCC(=O)c1ccc2c(c1)N(CCCN(C)C)c1ccccc1S2 = 29.8 µM (active)
O=[N+]([O-])c1nccn1CO[C@@H](CO)[C@H](O)CO = inactive

Look up Potency for the entries below, preserving their order.
1. CC1=C2[C@H](/C=C(\C)C(=O)O)CC[C@@H](C)[C@H]2CC1
2. CC(=O)O[C@H]1CC[C@@]2(C)C(=CC[C@@H]3[C@@H]2CC[C@]2(C)C(C(C)=O)=CC[C@@H]32)C1
3. CCCCCCCCCC/C=C/C#N

A)
25.2 µM (active)
inactive
inactive

Look up Potency for the entries below, preserving their order.
1. CCNCCO
2. CCCS(=O)c1ccc2nc(NC(=O)OC)[nH]c2c1 (stereo not given)
3. OCCN(CCO)CCN(CCO)CCO
4. Cc1cn([C@@H]2O[C@H](CO)[C@@H](O)[C@@H]2F)c(=O)[nH]c1=O

A)
1: inactive; 2: inactive; 3: inactive; 4: inactive

* * *

- assayed system: Cytochrome P450 1A2 (Homo sapiens) (UniProt P05177)
- Sequence (P05177 whole entry, looked up): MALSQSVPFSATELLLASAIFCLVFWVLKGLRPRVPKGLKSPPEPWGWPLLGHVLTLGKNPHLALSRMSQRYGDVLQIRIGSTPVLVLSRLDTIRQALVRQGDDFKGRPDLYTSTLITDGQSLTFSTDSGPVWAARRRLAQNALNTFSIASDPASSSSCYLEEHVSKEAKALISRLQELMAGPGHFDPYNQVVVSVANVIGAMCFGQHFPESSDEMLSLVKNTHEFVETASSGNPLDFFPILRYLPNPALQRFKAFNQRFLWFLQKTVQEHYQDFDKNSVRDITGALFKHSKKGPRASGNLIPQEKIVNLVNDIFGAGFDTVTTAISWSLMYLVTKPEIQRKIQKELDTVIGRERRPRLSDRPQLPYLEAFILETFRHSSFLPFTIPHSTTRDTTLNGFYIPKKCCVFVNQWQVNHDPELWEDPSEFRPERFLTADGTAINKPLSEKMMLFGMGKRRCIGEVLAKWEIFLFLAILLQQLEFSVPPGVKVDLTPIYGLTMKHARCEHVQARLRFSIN
- measurement notes: Cytochrome P450 Family 1 Subfamily A Member 2 (CYP1A2) small molecule antagonists: luciferase reporter qHTS assay (AID 1671199); further: nearly all actives have a fitted effect of over 50% in size
- assay context: P450-Glo CYP1A2 enzyme, luciferin luminescence, 1 h; series mostly up to 53 µM
- From the text: National Center for Advancing Translational Sciences [NCATS] U.S. Environmental Protection Agency [EPA] National Institutes of Environmental Health Sciences [NIEHS] National Toxicology Program [NTP] U.S. Food and Drug Administration [FDA] Cytochrome P450 (CYP) enzymes are membrane-bound hemeproteins that play a key role in metabolism of drugs and xenobiotics. […] The luciferin products formed are detected with a luciferin detection reagent, and the amount of light produced is proportional to CYP activity. […]
Records with an inconclusive call do not appear. The source made the active and inactive calls. The call rests on the fitted dose curve; in most records, active means well fitted inhibition curve with a large enough effect in the repeat runs; inconclusive means weak or mixed curves; inactive means no such curve, though single readings can be large or run the other way.
Log the outcome using a class from 1 = active, -1 = inactive

CCOC(=O)C1CC(=O)C(=C(O)C2CC2)C(=O)C1 (centres undefined) = -1
OCc1c2ccccc2cc2ccccc12 = 1
Cc1c(N)cccc1N = 1

Field: next compound
Q) Outcome? CC(Oc1c(Cl)cccc1Cl)C1=NCCN1 (centres undefined)
A) 1

* * *

- measurement notes: qHTS assay to identify small molecule agonists of the estrogen receptor beta (ER-beta) signaling pathway - cell viability counter screen (AID 1259380); further: nearly all actives have a fitted effect of over 30% in size
- assay context: ER-beta-bla HEK293T viability, CellTiter-Glo luminescence, 16 h; series mostly up to 92.4 µM
Records with an inconclusive call do not appear. Active and inactive are the calls of the source. Calls follow the shape of the dose curve; as a rule, active = well fitted cell-killing curve with a large enough effect in the repeat runs; inconclusive = weak or mixed curves, or effect the other way; inactive = flat fitted curve, though single readings scatter.
Log the outcome using a class from YES = active, NO = inactive

Field: example entries. Status: answers known.
NC1=NCC2c3ccccc3Cc3ccccc3N12 (stereo not drawn) = NO
C=CC(C)(O)CC/C=C(\C)CCC=C(C)C (stereo not drawn) = NO
CCCCCCCCc1ccc(S(=O)(=O)O)cc1 = YES
CN1CCN(c2c(F)cc3c(=O)c(C(=O)O)cn4c3c2SCC4)CC1 = NO
CC(C)NCC(O)COc1ccc(CCOCC2CC2)cc1 (stereo not drawn) = NO
O=C1CCN(c2ccccc2)N1 = YES
CCN[C@H]1CN(CCCOC)S(=O)(=O)c2sc(S(N)(=O)=O)cc21 = NO
FC(F)(F)C(Cl)(Cl)Cl = NO

Q) Outcome? CCCCC(CC)COC(=O)COc1cc(Cl)c(Cl)cc1Cl (stereo not drawn)
A) NO

Q) Outcome? `CCCCNC(=S)NCCCC`
A) NO

* * *

- measurement notes: qHTS assay to identify small molecule agonists of the estrogen receptor beta (ER-beta) signaling pathway - cell viability counter screen (AID 1259380); further: nearly all actives have a fitted effect of over 30% in size
- assay context: ER-beta-bla HEK293T viability, CellTiter-Glo luminescence, 16 h; series mostly up to 92.4 µM
Results filed as inconclusive are left out. The source made the active and inactive calls. Calls come from the whole dose curve; as a rule, active = well fitted cell-killing curve with a large enough effect in the repeat runs; inconclusive = weak or mixed curves, or effect the other way; inactive = flat fitted curve, though single readings scatter.
attribute measured: outcome

CCOC(=O)[C@H](CCc1ccccc1)N[C@@H](C)C(=O)N1Cc2cc(OC)c(OC)cc2C[C@H]1C(=O)O = inactive
CC1=NN(c2cc(Cl)c(S(=O)(=O)O)cc2Cl)C(=O)C1N=Nc1ccc(S(=O)(=O)O)cc1 (stereo not drawn) = inactive
CN1[C@@H]2CC[C@H]1CC(OC(=O)c1c[nH]c3ccccc13)C2 (stereo partly drawn) = inactive
